- Measured On: Hydroxycarboxylic acid receptor 2 (Homo sapiens)
- Measurement Description: Displacement of [5,6-3H]-nicotinic acid from recombinant human HCA2 receptor expressed in Flp-IN HEK cell membranes after 2 hrs by microbeta counting method
The label is Met for IC50 below 200 nM and Not met for IC50 equal to or exceeding 200 nM.

Given O=C(/C=C/C#Cc1ccccc1O)NC1=C(C(=O)O)CCCC1 , is recorded IC50 strictly lower than 200 nM? Met

Consider O=C(/C=C/C#Cc1ccccc1F)NC1=C(C(=O)O)CCCC1 . Does its IC50 lie strictly below 200 nM? Met

Determine if O=C(/C=C/CCc1ccccc1)NC1=C(C(=O)O)CCCC1 shows IC50 strictly lower than 200 nM. Not met

Consider the compound O=C(/C=C/C#Cc1ccccc1)NC1=C(C(=O)O)CCCC1 . Is its IC50 strictly less than 200 nM? Not met

Please indicate whether the reported IC50 of O=C(CCC#Cc1ccccc1O)NC1=C(C(=O)O)CCCC1 is strictly below 200 nM. Not met

Threshold test, IC50 < 200 nM: O=C(CCc1ccc(-c2ccc(O)cc2F)cc1)NC1=C(C(=O)O)CCCC1 Met

----------
- Measured On: Hydroxycarboxylic acid receptor 2 (Homo sapiens)
- Measurement Description: Displacement of [5,6-3H]-nicotinic acid from recombinant human HCA2 receptor expressed in Flp-IN HEK cell membranes after 2 hrs by microbeta counting method
Quantity Kind: pIC50
Reminder that pIC50 means the negative base-10 logarithm of the concentration expressed in mol/L.

Write down the reported pIC50 (system: Hydroxycarboxylic acid receptor 2 (Homo sapiens)) of O=C(CCc1ccc(-c2ccccc2F)cc1)NC1=C(C(=O)O)CCCC1 6.55

State, for Hydroxycarboxylic acid receptor 2 (Homo sapiens), measured pIC50 of the compound listed here: O=C(CCC#Cc1ccccc1F)NC1=C(C(=O)O)CCCC1 7.17

Enter measured pIC50, system Hydroxycarboxylic acid receptor 2 (Homo sapiens), for the compound shown: O=C(/C=C/C#Cc1cccc(O)c1)NC1=C(C(=O)O)CCCC1 6.42

Give the observed pIC50 of O=C(CCc1ccc(-c2cccc(O)c2)cc1)NC1=C(C(=O)O)CCCC1 for Hydroxycarboxylic acid receptor 2 (Homo sapiens). 7.49

Please report pIC50 with Hydroxycarboxylic acid receptor 2 (Homo sapiens) for item O=C(CCC#Cc1ccc(O)cn1)NC1=C(C(=O)O)CCCC1 . 6.18

Write pIC50 of O=C(CCC#Cc1cccc(O)c1)NC1=C(C(=O)O)CCCC1 ; system used: Hydroxycarboxylic acid receptor 2 (Homo sapiens) 6.86

Please report pIC50 with Hydroxycarboxylic acid receptor 2 (Homo sapiens) for item O=C(/C=C/C#Cc1ccc(O)cc1)NC1=C(C(=O)O)CCCC1 . 7.60

Specify the recorded pIC50 for O=C(/C=C/C#Cc1ccc(O)cc1F)NC1=C(C(=O)O)CCCC1 , system: Hydroxycarboxylic acid receptor 2 (Homo sapiens). 6.48

Fill in: pIC50 on Hydroxycarboxylic acid receptor 2 (Homo sapiens), entry O=C(CCC#Cc1ccc(F)cc1)NC1=C(C(=O)O)CCCC1 6.54

Look up and report pIC50, with Hydroxycarboxylic acid receptor 2 (Homo sapiens) as system, for O=C(CCc1ccc(-c2ccccc2O)cc1)NC1=C(C(=O)O)CCCC1 7.40

State pIC50 (Hydroxycarboxylic acid receptor 2 (Homo sapiens)) of O=C(/C=C/C#Cc1ccccc1Cl)NC1=C(C(=O)O)CCCC1 . 7.06

----------
Would you kindly list Emax for each of these compounds?
- Measured On: UniProt:Q8TDS4
- Measurement Description: Agonist activity at recombinant human HCA2 receptor expressed in Flp-IN HEK cells assessed as reduction in forskolin-stimulated cAMP accumulation measured after 30 mins relative to control
- Type: functional, cell-based
Give a bare numeral; the unit % is implied.

Check the records and state Emax for O=C(/C=C/C#Cc1ccccc1O)NC1=C(C(=O)O)CCCC1 78

Query Emax for O=C(CCc1ccc(-c2ccccc2O)cc1)NC1=C(C(=O)O)CCCC1 90

Specify reported Emax for the compound shown: O=C(CCC#Cc1ccc(O)cc1Cl)NC1=C(C(=O)O)CCCC1 94

Input O=C(CCc1ccc(-c2ccc(O)cc2F)cc1)NC1=C(C(=O)O)CCCC1 , output reported Emax. 99

Report Emax for O=C(CCc1ccc(-c2cccc(O)c2)cc1)NC1=C(C(=O)O)CCCC1 96

Give the measured Emax for O=C(CCc1ccc(-c2ccccc2F)cc1)NC1=C(C(=O)O)CCCC1 97

Output measured Emax for this item: O=C(/C=C/C#Cc1ccc(O)cc1)NC1=C(C(=O)O)CCCC1 97

----------
- Measured On: Hydroxycarboxylic acid receptor 2 (Homo sapiens, UniProt Q8TDS4)
- Sequence (Q8TDS4 whole entry): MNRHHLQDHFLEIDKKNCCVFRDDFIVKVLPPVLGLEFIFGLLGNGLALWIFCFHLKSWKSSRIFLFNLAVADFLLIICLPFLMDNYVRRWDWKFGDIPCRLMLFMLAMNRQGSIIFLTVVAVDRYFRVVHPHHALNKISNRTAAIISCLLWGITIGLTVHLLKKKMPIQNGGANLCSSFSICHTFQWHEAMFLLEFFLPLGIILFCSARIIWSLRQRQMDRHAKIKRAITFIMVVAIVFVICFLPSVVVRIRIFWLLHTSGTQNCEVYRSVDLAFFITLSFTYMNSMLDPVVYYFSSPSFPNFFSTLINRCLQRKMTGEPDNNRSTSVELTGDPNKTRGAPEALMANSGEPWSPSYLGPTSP
- Measurement Description: Displacement of [5,6-3H]-nicotinic acid from recombinant human HCA2 receptor expressed in Flp-IN HEK cell membranes after 2 hrs by microbeta counting method
Strictly below 30 nM in IC50: Criterion met. Otherwise: Criterion not met.

Check if IC50 falls below 30 nM for O=C(CCC#Cc1ccc(O)cc1Cl)NC1=C(C(=O)O)CCCC1 . Criterion not met

Hi there! Is IC50 for O=C(CCc1ccc(-c2ccc(O)cc2)cc1)NC1=C(C(=O)O)CCCC1 below 30 nM, do you know? Criterion met

Report whether reported IC50 is lower than 30 nM (strictly) for O=C(CCC#Cc1ccccc1Cl)NC1=C(C(=O)O)CCCC1 Criterion not met

In plain terms, does O=C(CCC#Cc1ccc(C(=O)O)cc1)NC1=C(C(=O)O)CCCC1 come in under 30 nM for IC50? Criterion not met

Strictly below 30 nM: is that where IC50 of O=C(CCC#Cc1ccc(O)cc1F)NC1=C(C(=O)O)CCCC1 sits? Criterion met

Could you please tell me whether IC50 recorded for O=C(CCC#Cc1ccc(O)cc1)NC1=C(C(=O)O)CCCC1 is less than 30 nM? Criterion met

Is IC50 of O=C(CCc1ccc(-c2ccccc2Cl)cc1)NC1=C(C(=O)O)CCCC1 strictly below 30 nM? Criterion not met

----------
- Measured On: Hydroxycarboxylic acid receptor 2 (Homo sapiens, UniProt Q8TDS4)
- Measurement Description: Agonist activity at recombinant human HCA2 receptor expressed in Flp-IN HEK cells assessed as reduction in forskolin-stimulated cAMP accumulation measured after 30 mins
Quantity Kind: EC50 (nM)
Response body: numeric value in nM, unit text excluded.

Quick one: give measured EC50 for O=C(/C=C/C#Cc1ccc(O)cc1F)NC1=C(C(=O)O)CCCC1 110

Give EC50 for O=C(CCc1ccc(-c2ccccc2F)cc1)NC1=C(C(=O)O)CCCC1 190

Identify measured EC50 associated with O=C(CCC#Cc1ccc(F)cc1)NC1=C(C(=O)O)CCCC1 630

Return reported EC50. Input compound: O=C(/C=C/C#Cc1ccccc1)NC1=C(C(=O)O)CCCC1 1010

# return recorded EC50 for input O=C(CCc1ccc(-c2ccccc2Cl)cc1)NC1=C(C(=O)O)CCCC1 130

For the compound O=C(CCC#Cc1ccccc1Cl)NC1=C(C(=O)O)CCCC1 , report EC50. 190

Determine its reported EC50: O=C(CCc1ccc(-c2ccc(O)cc2F)cc1)NC1=C(C(=O)O)CCCC1 260

Fill in reported EC50 for this entry: O=C(/C=C/C#Cc1cccc(O)c1)NC1=C(C(=O)O)CCCC1 390

Retrieve EC50 measured for O=C(CCC#Cc1ccccc1O)NC1=C(C(=O)O)CCCC1 and print it. 720

Provide one value: measured EC50 of O=C(/C=C/C#Cc1ccc(O)cc1)NC1=C(C(=O)O)CCCC1 130

Return the recorded EC50 value; entry: O=C(CCc1ccc(-c2ccc(O)cc2)cc1)NC1=C(C(=O)O)CCCC1 70

Provide only the value of recorded EC50 for O=C(CCC#Cc1ccc(O)cc1F)NC1=C(C(=O)O)CCCC1 80

Please report the measured EC50 for O=C(CCC#Cc1ccc(C(=O)O)cc1)NC1=C(C(=O)O)CCCC1 5610

----------
Please respond with reported Emax for every item in the list.
- Measured On: Hydroxycarboxylic acid receptor 2 (Homo sapiens, UniProt Q8TDS4)
- Measurement Description: Agonist activity at recombinant human HCA2 receptor expressed in Flp-IN HEK cells assessed as reduction in forskolin-stimulated cAMP accumulation measured after 30 mins relative to control
- Type: functional, cell-based
Please give a number only; it is taken to be in %.

Provide one value: measured Emax of O=C(/C=C/C#Cc1ccccc1Cl)NC1=C(C(=O)O)CCCC1 88

Please supply the value of reported Emax for the item O=C(CCC#Cc1ccccc1F)NC1=C(C(=O)O)CCCC1 90

Give recorded Emax. O=C(/C=C/C#Cc1cccc(O)c1)NC1=C(C(=O)O)CCCC1 92

Return Emax (reported value) for this molecule: O=C(CCc1ccc(-c2ccccc2Cl)cc1)NC1=C(C(=O)O)CCCC1 92

Provide one value: measured Emax of O=C(CCC#Cc1cccc(O)c1)NC1=C(C(=O)O)CCCC1 89

For the molecule O=C(CCc1ccc(-c2ccc(O)cc2)cc1)NC1=C(C(=O)O)CCCC1 , report Emax. 92
